# tgt: T1, cynomolgus suPAR (cynomolgus, UniProt Q9GK78 23-303, limits assumed)
# T1 construct: Target antigen of the off-rate screen; also called cynomolgus uPAR; cynoPLAUR-His
# protocolSummary: BLI (Octet) off-rate screen of scFv clones
readout: koff (s⁻¹)
Report only the number, with the unit s⁻¹ understood.

# query: koff of entry suPAR_DB03_B06 (scFv, V domains shown, screened as scFv) VH: QVQLVQSGAEVKKPGASVKVSCKASGYNITDYYIHWVRQAPGQGLEWMGWIDPENGSTIYDQKFQGRVTMTRDTSTSTVYMELSSLRSEDTAVYYCARGYDVDWFVYWGQGTLVTVSS VL: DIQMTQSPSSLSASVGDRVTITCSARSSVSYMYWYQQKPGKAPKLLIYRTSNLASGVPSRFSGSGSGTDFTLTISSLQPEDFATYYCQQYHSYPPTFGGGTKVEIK
1.08e-05

# query: koff of entry suPAR_DB02_H08 (scFv, V domains shown, screened as scFv) VH: QVQLVQSGAEVKKPGASVKVSCKASGYTFTGYYIHWVRQAPGQGLEWMGWIDPENGSTIYDQKFQGRVTMTRDTSTSTVYMELSSLRSEDTAVYYCARGYDVDWFVYWGQGTLVTVSS VL: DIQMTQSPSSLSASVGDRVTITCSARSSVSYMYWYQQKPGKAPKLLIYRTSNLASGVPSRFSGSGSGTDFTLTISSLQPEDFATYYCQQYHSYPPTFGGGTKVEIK
0.000228
